// data source = patent US20160095843A1

// values below are GI50; system is K-562 cells
Value kind: GI50 (nM)

Molecule | Result number
CCc1nn(CCO)c2c1C(c1ccc(Cl)cc1)N(c1cc(C)c(=O)n(C)c1)C2=O (centres unmarked) [Example 78] | 392
Cc1cc(N2C(=O)c3nn(C4COC4)c(C)c3C2c2ccc(Cl)cc2)cn(C)c1=O (centres unmarked) [Example 134] | 574
Cc1cc(N2C(=O)c3c(c(CF)nn3C3CC3)C2c2ccc(Cl)cc2)cn2c(C)nnc12 (centres unmarked) [Example 159] | 116
Cc1nn(C2CC2)c2c1C(c1ccc(Cl)cc1)N(c1cc(C)c3nnc(C)n3c1)C2=O (centres unmarked) [Example 92] | 65
Cc1nn(C)c2c1C(c1ccc(Cl)cc1)N(c1cc(Cl)c(=O)n(C)c1)C2=O (centres unmarked) [Example 58] | 1140
CNC(=O)n1nc2c(c1C)C(c1ccc(Cl)cc1)N(c1cc(C)c3nnc(C)n3c1)C2=O (centres unmarked) [Example 146] | 314
CNc1cc(N2C(=O)c3c(c(C)nn3C3CC3)[C@H]2c2ccc(Cl)cc2)nn2c(C)nnc12 [Example 161] | 352
CCc1nn(-c2cnc(OC)nc2OC)c2c1C(c1ccc(Cl)cc1)N(c1cc(C)c(=O)n(C)c1)C2=O (centres unmarked) [Example 60] | 456
